- Tested on: SF-268
- protocol summary: NCI tumour cell line growth inhibition, 48 h
Calls of active or inactive are those of the source. No stated cut-off is given here; in the data, active = GI50 up to about 1.1 µM and inactive = higher.
measurement type: GI50

Give measured GI50 for NC(=O)c1ncn2c1CNC(=O)C2 (SF-268).
> 100 µM (inactive)

Give measured GI50 for CC(=O)c1c(C)cc2cccc(OC3OC(CO)C(O)C(O)C3O)c2c1O.CC1OC(O)C(O)C(O)C1O (stereo unspecified) (SF-268).
> 100 µM (inactive)

Give measured GI50 for CC(C)(C)OP(=O)(OC(C)(C)C)C(O)c1ccc(/C=C(\C#N)C(N)=O)cc1 (stereo unspecified) (SF-268).
> 100 µM (inactive)

Give measured GI50 for CC(=O)SC(C[N+](=O)[O-])c1ccc2c(c1)OCO2 (stereo unspecified) (SF-268).
15.9 µM (inactive)

Give measured GI50 for COC1CC(n2ccc(=O)[nH]c2=O)OC1CO (stereo unspecified) (SF-268).
> 100 µM (inactive)

Give measured GI50 for CCN(CC)c1ccc2nc3ccc(/N=N/c4c(O)ccc5ccccc45)cc3[n+](-c3ccccc3)c2c1 (SF-268).
> 100 µM (inactive)

Give measured GI50 for COc1cc2c(cc1OC)[C@H]1CN3CCC[C@H]3C=C1c1ccc(OC)c(O)c1-2 (SF-268).
0.000819 µM (active)

Give measured GI50 for CC1(C)COC2(OC1)C1=NS(=O)(=O)CC13CCC2C3(C)C (stereo unspecified) (SF-268).
> 100 µM (inactive)

Give measured GI50 for COc1cc2c3c4c1OCc1c5c(cc(c1-4)CC3[N+](C)(C)CC2)OCO5 (stereo unspecified) (SF-268).
2.79 µM (inactive)

Give measured GI50 for COc1ccc(/C=C/C(=O)c2sc(Nc3ccc([N+](=O)[O-])cc3)nc2C)cc1 (SF-268).
34.8 µM (inactive)

Give measured GI50 for COc1cc2c(cc1C1=NC(C)(C)CO1)OCO2 (SF-268).
> 100 µM (inactive)

Give measured GI50 for O=C(CSCC(=O)N/N=C\c1ccccc1F)N/N=C\c1ccccc1F (SF-268).
> 100 µM (inactive)

Give measured GI50 for CN(C)c1ccc(/C=c2\sc3nnc(-c4cccnc4)n3c2=O)cc1 (SF-268).
> 100 µM (inactive)

Give measured GI50 for CSc1ccsc1-c1sc(-c2cc(SC)c(-c3sc(-c4cc(SC)c(-c5sccc5SC)s4)cc3SC)s2)cc1SC (SF-268).
> 100 µM (inactive)

Give measured GI50 for C[N+]12CCN(c3ccccc31)c1ccccc12.[O-][Cl+3]([O-])([O-])[O-] (SF-268).
4.79 µM (inactive)

Give measured GI50 for Cc1cccc(C)c1NC(=O)C(=O)C(c1ccccc1Cl)S(=O)(=O)Cc1ccccc1Cl (stereo unspecified) (SF-268).
22.9 µM (inactive)

Give measured GI50 for CC[n+]1cnc(N)c2c(-c3ccc(Cl)cc3)cn(-c3ccc(C)cc3)c21 (SF-268).
13.6 µM (inactive)

Give measured GI50 for CN(C)CCCNC(=O)c1c(O)c2ccccc2[nH]c1=O (SF-268).
83.2 µM (inactive)

Give measured GI50 for CS/C(N)=N/c1cccc2ccccc12 (SF-268).
> 10 µM (inactive)

Give measured GI50 for O=c1[nH]nc(Cc2ccccc2)n1CCO (SF-268).
> 100 µM (inactive)

Give measured GI50 for CC(=O)O[C@H]1CC[C@H]2[C@@H]3CCC4=C(C(=O)C=CC4(C)OC(C)=O)[C@H]3CC[C@]12C (stereo partly specified) (SF-268).
83.4 µM (inactive)
